Reference source for all entries: patent US10308916B2

- Test system: OATA W58V
- Assay type: biochemical
- experimental-setup: pH 7
Entries and their measured Relative activity to acetophenone, OATA W58V follow.
value-type: Relative activity to acetophenone, OATA W58V (%)

- compound: "CC(=O)C(C)O (centres unmarked) [3-hydroxy-2-butanone]"
  tested-system: "OATA W58V"
  recorded-value: 29
- compound: "O=C1CCCc2ccccc21"
  tested-system: "OATA W58V"
  recorded-value: 12
- compound: "CCCCC(C)=O"
  tested-system: "OATA W58V"
  recorded-value: 62
- compound: "CC(=O)CCO [4-hydroxy-2-butanone]"
  tested-system: "OATA W58V"
  recorded-value: 20
- compound: "CC(=O)c1ccc(C)cc1"
  tested-system: "OATA W58V"
  recorded-value: 52
- compound: "CC(=O)c1ccccc1"
  tested-system: "OATA W58V"
  recorded-value: 100
- compound: "O=C(CO)c1ccccc1 [2-hydroxyacetophenone]"
  tested-system: "OATA W58V"
  recorded-value: 70
- compound: "CCCC(C)=O"
  tested-system: "OATA W58V"
  recorded-value: 28
- compound: "CC(C)=O"
  tested-system: "OATA W58V"
  recorded-value: 18
- compound: "COCC(C)=O"
  tested-system: "OATA W58V"
  recorded-value: 152
- compound: "O=C1CCc2ccccc21"
  tested-system: "OATA W58V"
  recorded-value: 17
- compound: "CCC(C)=O"
  tested-system: "OATA W58V"
  recorded-value: 17
- compound: "CCCCCCC(C)=O"
  tested-system: "OATA W58V"
  recorded-value: 140
- compound: "CC(=O)CC(C)C"
  tested-system: "OATA W58V"
  recorded-value: 35
- compound: "CCCC(=O)c1ccccc1"
  tested-system: "OATA W58V"
  recorded-value: 12
- compound: "COc1ccc(C(C)=O)cc1"
  tested-system: "OATA W58V"
  recorded-value: 30
- compound: "CC(=O)CO [hydroxyacetone]"
  tested-system: "OATA W58V"
  recorded-value: 32
- compound: "CC(=O)CCc1ccccc1"
  tested-system: "OATA W58V"
  recorded-value: 193
- compound: "CC(=O)C(C)C"
  tested-system: "OATA W58V"
  recorded-value: 29
- compound: "CCC(=O)CO [1-hydroxy-2-butanone]"
  tested-system: "OATA W58V"
  recorded-value: 8

* * *

- System: OATA W58A
- Format: biochemical
- experimental-setup: pH 7
With a cut-off of 20%, any Relative activity to acetophenone, OATA W58A strictly below it is called label 1; any Relative activity to acetophenone, OATA W58A meeting it or above is called label 0.

- compound: "CCC(=O)CO [1-hydroxy-2-butanone]"
  class-name: "label 1"
- compound: "CCCC(C)=O"
  class-name: "label 1"
- compound: "CC(=O)c1ccc(C)cc1"
  class-name: "label 0"
- compound: "O=C1CCCc2ccccc21"
  class-name: "label 1"
- compound: "CCC(C)=O"
  class-name: "label 1"
- compound: "COCC(C)=O"
  class-name: "label 0"
- compound: "CC(=O)CCc1ccccc1"
  class-name: "label 0"
- compound: "CC(=O)C(C)C"
  class-name: "label 0"
- compound: "CCCCCCC(C)=O"
  class-name: "label 0"
- compound: "CCCC(=O)c1ccccc1"
  class-name: "label 1"
- compound: "O=C(CO)c1ccccc1 [2-hydroxyacetophenone]"
  class-name: "label 0"
- compound: "CC(=O)CC(C)C"
  class-name: "label 0"
- compound: "O=C1CCc2ccccc21"
  class-name: "label 1"
- compound: "CC(=O)c1ccccc1"
  class-name: "label 0"
- compound: "COc1ccc(C(C)=O)cc1"
  class-name: "label 0"
- compound: "CC(C)=O"
  class-name: "label 1"
- compound: "CCCCC(C)=O"
  class-name: "label 0"
- compound: "CC(=O)CCO [4-hydroxy-2-butanone]"
  class-name: "label 1"
- compound: "CC(=O)CO [hydroxyacetone]"
  class-name: "label 0"

* * *

- System: OATA L57A/W58A
- Assay type: biochemical
Some compounds, each annotated with its measured Relative activity, OATA L57A/W58A.

- compound: "C[C@H](N)c1cccc2ccccc12 [(S)-1-(1-naphthyl)ethylamine]"
  result-unit: "%"
  Relative activity, OATA L57A/W58A: 18
- compound: "C[C@H](N)c1ccccc1 [(S)-α-methylbenzylamine]"
  result-unit: "%"
  Relative activity, OATA L57A/W58A: 621
- compound: "CCC[C@H](N)c1ccccc1 [(S)-α-propylbenzylamine]"
  result-unit: "%"
  Relative activity, OATA L57A/W58A: 240
- compound: "CC[C@H](N)c1ccccc1 [(S)-α-ethylbenzylamine]"
  result-unit: "%"
  Relative activity, OATA L57A/W58A: 202
- compound: "CC(C)C(N)c1ccccc1 (racemic)"
  result-unit: "%"
  Relative activity, OATA L57A/W58A: 12

* * *

Let's look at some compounds and their measured Relative activity to acetophenone, OATA W58I.
- Test system: OATA W58I
- Type: biochemical
- experimental-setup: pH 7
value-type: Relative activity to acetophenone, OATA W58I (%)

- compound: "CC(=O)CC(C)C"
  tested-system: "OATA W58I"
  recorded-value: 41
- compound: "CCCC(C)=O"
  tested-system: "OATA W58I"
  recorded-value: 21
- compound: "O=C(CO)c1ccccc1 [2-hydroxyacetophenone]"
  tested-system: "OATA W58I"
  recorded-value: 73
- compound: "COCC(C)=O"
  tested-system: "OATA W58I"
  recorded-value: 166
- compound: "O=C1CCCc2ccccc21"
  tested-system: "OATA W58I"
  recorded-value: 16
- compound: "CC(=O)CCO [4-hydroxy-2-butanone]"
  tested-system: "OATA W58I"
  recorded-value: 20
- compound: "CC(=O)C(C)O (centres unmarked) [3-hydroxy-2-butanone]"
  tested-system: "OATA W58I"
  recorded-value: 23
- compound: "COc1ccc(C(C)=O)cc1"
  tested-system: "OATA W58I"
  recorded-value: 38
- compound: "CC(=O)C(C)C"
  tested-system: "OATA W58I"
  recorded-value: 26
- compound: "CC(=O)c1ccc(C)cc1"
  tested-system: "OATA W58I"
  recorded-value: 74
- compound: "CC(=O)CO [hydroxyacetone]"
  tested-system: "OATA W58I"
  recorded-value: 42
- compound: "CC(=O)CCc1ccccc1"
  tested-system: "OATA W58I"
  recorded-value: 125
- compound: "O=C1CCc2ccccc21"
  tested-system: "OATA W58I"
  recorded-value: 16
- compound: "CCC(=O)CO [1-hydroxy-2-butanone]"
  tested-system: "OATA W58I"
  recorded-value: 16
- compound: "CC(=O)c1ccccc1"
  tested-system: "OATA W58I"
  recorded-value: 100
- compound: "CC(C)=O"
  tested-system: "OATA W58I"
  recorded-value: 18
- compound: "CCCCCCC(C)=O"
  tested-system: "OATA W58I"
  recorded-value: 73
- compound: "CCCC(=O)c1ccccc1"
  tested-system: "OATA W58I"
  recorded-value: 11
- compound: "CCC(C)=O"
  tested-system: "OATA W58I"
  recorded-value: 20
- compound: "CCCCC(C)=O"
  tested-system: "OATA W58I"
  recorded-value: 54

* * *

- Tested on: OATA W58L
- Assay type: biochemical
Listed compounds paired with reported Fold-increase in kcat/KM

- compound: "C[C@H](N)c1ccccc1 [(S)-α-methylbenzylamine]"
  Fold-increase in kcat/KM: 170
- compound: "CC(C)N"
  Fold-increase in kcat/KM: 8.6
- compound: "CC(=O)c1ccccc1"
  Fold-increase in kcat/KM: 340
- compound: "CC(=O)C(=O)O [pyruvate, pyruvic acid]"
  Fold-increase in kcat/KM: 0.41

* * *

Reported Relative activity, OATA L57A/W58A/V154A values for a set of compounds
- System: OATA L57A/W58A/V154A
- Type: biochemical

- compound: "CCC[C@H](N)c1ccccc1 [(S)-α-propylbenzylamine]"
  Relative activity, OATA L57A/W58A/V154A (%): 749
- compound: "C[C@H](N)c1cccc2ccccc12 [(S)-1-(1-naphthyl)ethylamine]"
  Relative activity, OATA L57A/W58A/V154A (%): 60
- compound: "CC[C@H](N)c1ccccc1 [(S)-α-ethylbenzylamine]"
  Relative activity, OATA L57A/W58A/V154A (%): 707
- compound: "CC(C)C(N)c1ccccc1 (racemic)"
  Relative activity, OATA L57A/W58A/V154A (%): 167

* * *

- Tested on: OATA L57A
- Format: biochemical
// reported Relative activity, OATA L57A per item
value-type: Relative activity, OATA L57A (%)

- compound: "CCCCCCC(=O)C(=O)O"
  tested-system: "OATA L57A"
  recorded-value: 2
- compound: "CCCCC(=O)C(=O)O"
  tested-system: "OATA L57A"
  recorded-value: 15
- compound: "CCC(=O)C(=O)O"
  tested-system: "OATA L57A"
  recorded-value: 34
- compound: "CC(=O)C(=O)O [pyruvate, pyruvic acid]"
  tested-system: "OATA L57A"
  recorded-value: 77
- compound: "CCCC(=O)C(=O)O"
  tested-system: "OATA L57A"
  recorded-value: 40
